// provenance: patent US8969352B2

- measurement_target: rat orexin 1 receptor (Rattus norvegicus, UniProt P56718)
- protocol_notes: Rat orexin 1 receptor radioligand binding
- condition_context: HEK293 cells stably expressing rat orexin 1 receptor; competitive radioligand binding, apparent Ki; read-out: rOX1 Ki
experimental_endpoint: Ki (nM)

{"columns": ["compound", "measurement_target", "experimental_endpoint", "output_unit", "result"],
 "data": [
  ["Cc1cccc(C(=O)N2C[C@H]3C[C@@H](Oc4ccc(C(F)(F)F)cn4)[C@@H]2C3)c1-c1ncco1 [Example 32]", "rat orexin 1 receptor (Rattus norvegicus, UniProt P56718)", "Ki", "nM", 3],
  ["O=C(c1c(F)cccc1-n1nccn1)N1CC2CC(Oc3ccc(C(F)(F)F)cn3)C1C2 (racemic) [Example 18]", "rat orexin 1 receptor (Rattus norvegicus, UniProt P56718)", "Ki", "nM", 25],
  ["Cc1ccc(-n2nccn2)c(C(=O)N2CC3CC(Oc4cnc(C(F)(F)F)cn4)C2C3)n1 (racemic) [Example 2]", "rat orexin 1 receptor (Rattus norvegicus, UniProt P56718)", "Ki", "nM", 200],
  ["CCOc1ccc(C)nc1C(=O)N1C[C@H]2C[C@@H](Oc3ccc(C(F)(F)F)cn3)[C@@H]1C2 [Example 37]", "rat orexin 1 receptor (Rattus norvegicus, UniProt P56718)", "Ki", "nM", 170]
]}

[P] O=C(c1cc(F)ccc1-n1nccn1)N1C[C@H]2C[C@@H](Nc3ccc(C(F)(F)F)cn3)[C@@H]1C2 [Example 57]
[Q] O=C(c1cccc2cc[nH]c12)N1C[C@H]2C[C@@H](Oc3ccc(C(F)(F)F)cn3)[C@@H]1C2 [Example 42]
[R] Cc1cnc(C(=O)N2CC3CC(Oc4cnc(C(F)(F)F)cn4)C2C3)c(-n2nccn2)c1 (racemic) [Example 4]
[S] CCOc1ccc2cccnc2c1C(=O)N1CC2CC(Oc3ccc(C(F)(F)F)cn3)C1C2 (racemic) [Example 10]
[T] Cc1cnn(C)c1-c1ccccc1C(=O)N1C[C@H]2C[C@@H](Oc3ccc(C(F)(F)F)cn3)[C@@H]1C2 [Example 41]
Rank descending by Ki. In your reply, arrange the labels in the requested order.
T, R, Q, S, P

[a] O=C(c1cccc(F)c1-n1nccn1)N1C[C@H]2C[C@@H](Oc3ccc(C(F)(F)F)cn3)[C@@H]1C2 [Example 35]
[b] CCOc1ncc2ccccc2c1C(=O)N1CC2CC(Oc3cnc(C(F)(F)F)cn3)C1C2 (racemic) [Example 3]
// which entry has the larger Ki value, a or b ? Mark your selection by writing its label.
b

====

- measurement_target: human orexin 2 receptor (Homo sapiens (Human))
- protocol_notes: Human orexin 2 receptor radioligand binding
- condition_context: HEK293 stably expressing human orexin 2 receptor; [3H]-EMPA competitive binding, apparent Ki; read-out: hOX2 Ki
experimental_endpoint: Ki (µM)

For orientation, consider the following solved cases.
{"columns": ["compound", "experimental_endpoint", "result"],
 "data": [
  ["O=C(c1c(F)cccc1-c1ncccn1)N1C[C@H]2C[C@@H](Oc3ccc(C(F)(F)F)cn3)[C@@H]1C2", "Ki", 0.69],
  ["O=C(c1cccc(F)c1-c1ncccn1)N1C[C@H]2C[C@@H](Oc3ccc(Br)cn3)[C@@H]1C2", "Ki", 0.972],
  ["O=C(c1ccccc1-n1nccn1)N1C[C@H]2C[C@@H](Nc3cnc(C(F)(F)F)cn3)[C@@H]1C2", "Ki", 0.213],
  ["COc1cccc(-c2ncccn2)c1C(=O)N1C[C@H]2C[C@@H](Oc3ccc(C(F)(F)F)cn3)[C@@H]1C2", "Ki", 0.34],
  ["CCOc1ncc2ccccc2c1C(=O)N1CC2CC(Oc3ccc(C(F)(F)F)cn3)C1C2 (racemic)", "Ki", 1.45],
  ["O=C(c1cc(F)ccc1-c1ncccn1)N1CC2CC(Oc3ccc(C(F)(F)F)cn3)C1C2 (racemic)", "Ki", 0.945]
]}

[P] Cc1ccc(-n2nccn2)c(C(=O)N2C[C@H]3C[C@@H](Oc4ccc(Br)cn4)[C@@H]2C3)n1
[Q] O=C(c1cccc2cc[nH]c12)N1C[C@H]2C[C@@H](Oc3ccc(C(F)(F)F)cn3)[C@@H]1C2
Pick one: P or Q . Which one has the lower reported Ki? Mark your selection by writing its label.
P
(P: 0.67 µM, Q: 5.8 µM)

====

- measurement_target: human orexin 2 receptor (Homo sapiens (Human), UniProt O43614)
- Sequence (O43614 whole entry): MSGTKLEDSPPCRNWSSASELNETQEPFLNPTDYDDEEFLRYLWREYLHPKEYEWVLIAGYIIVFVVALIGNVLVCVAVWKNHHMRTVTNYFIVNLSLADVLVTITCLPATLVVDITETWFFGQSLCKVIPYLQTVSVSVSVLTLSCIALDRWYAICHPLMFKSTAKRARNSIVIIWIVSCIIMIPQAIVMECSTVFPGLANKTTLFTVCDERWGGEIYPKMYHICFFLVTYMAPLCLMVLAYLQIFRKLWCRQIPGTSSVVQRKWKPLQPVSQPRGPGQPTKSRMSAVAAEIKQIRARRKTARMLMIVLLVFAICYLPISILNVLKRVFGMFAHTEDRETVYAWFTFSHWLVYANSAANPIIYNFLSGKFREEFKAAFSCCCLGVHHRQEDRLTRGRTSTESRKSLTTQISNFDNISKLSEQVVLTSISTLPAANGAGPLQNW
- protocol_notes: Human orexin 2 receptor radioligand binding
- condition_context: HEK293 stably expressing human orexin 2 receptor; [3H]-EMPA competitive binding, apparent Ki; read-out: hOX2 Ki
experimental_endpoint: Ki (nM)

{"columns": ["compound", "Ki (nM)"],
 "data": [
  ["O=C(c1ccc(F)cc1-c1ncccn1)N1CC2CC(Oc3ccc(C(F)(F)F)cn3)C1C2 (racemic) [Example 20]", 2700],
  ["O=C(c1ccccc1-n1nccn1)N1C[C@H]2C[C@@H](Oc3ccc(Br)cn3)[C@@H]1C2 [Example 49]", 507],
  ["O=C(c1ccc(F)cc1-c1ncccn1)N1C[C@H]2C[C@@H](Oc3ccc(C(F)(F)F)cn3)[C@@H]1C2 [Example 26]", 2100]
]}

[P] COc1cccc(-c2ccn[nH]2)c1C(=O)N1C[C@H]2C[C@@H](Oc3ccc(C(F)(F)F)cn3)[C@@H]1C2 [Example 39]
[Q] Cc1ccc(-n2nccn2)c(C(=O)N2CC3CC(Oc4cnc(C(F)(F)F)cn4)C2C3)n1 (racemic) [Example 2]
[R] Cc1cccc(C(=O)N2CC3CC(Oc4ccc(C(F)(F)F)cn4)C2C3)c1-n1nccn1 (racemic) [Example 17]
[S] O=C(c1cccc(F)c1Br)N1C[C@H]2C[C@@H](Oc3ccc(C(F)(F)F)cn3)[C@@H]1C2 [Example 45]
Arrange these 4 compounds in increasing order of Ki. In your reply, arrange the labels in the requested order.
P, R, S, Q
(P: 108 nM, R: 234 nM, S: 1500 nM, Q: 10000 nM)

====

- measurement_target: UniProtKB O43613
- protocol_notes: Human orexin 1 receptor radioligand binding
- condition_context: CHO cells stably expressing human orexin 1 receptor; competitive radioligand binding, apparent Ki; read-out: hOX1 Ki
pKi: −log10 of the molar value.
experimental_endpoint: pKi

For orientation, consider the following solved cases.
{"columns": ["compound", "experimental_endpoint", "result"],
 "data": [
  ["CCOc1ccc2cccnc2c1C(=O)N1C[C@H]2C[C@@H](Nc3ccc(C(F)(F)F)cn3)[C@@H]1C2 [Example 56]", "pKi", 8.00],
  ["O=C(c1cccc(F)c1Br)N1C[C@H]2C[C@@H](Oc3ccc(C(F)(F)F)cn3)[C@@H]1C2 [Example 45]", "pKi", 7.26],
  ["O=C(c1cc(F)ccc1-c1ncccn1)N1CC2CC(Oc3ccc(C(F)(F)F)cn3)C1C2 (racemic) [Example 19]", "pKi", 8.05],
  ["O=C(c1ccccc1-n1nccn1)N1C[C@H]2C[C@@H](Oc3ccc(Br)cn3)[C@@H]1C2 [Example 49]", "pKi", 8.22],
  ["O=C(c1c(F)cccc1-n1nccn1)N1CC2CC(Oc3ccc(C(F)(F)F)cn3)C1C2 (racemic) [Example 18]", "pKi", 7.64],
  ["CCOc1ncc2ccccc2c1C(=O)N1CC2CC(Oc3cnc(C(F)(F)F)cn3)C1C2 (racemic) [Example 3]", "pKi", 6.91]
]}

[A] COc1ccc(C(=O)N2CC3CC(Oc4ccc(C(F)(F)F)cn4)C2C3)c(-n2nccn2)c1 (racemic) [Example 13]
[B] O=C(c1ccccc1-n1nccn1)N1C[C@H]2C[C@@H](Nc3cnc(C(F)(F)F)cn3)[C@@H]1C2 [Example 59]
Pick one: A or B . Which one has the lower reported pKi? Mark your selection by writing its label.
A
(A: 6.96, B: 8.05)

====

- measurement_target: UniProtKB O43614
- protocol_notes: Human orexin 2 receptor radioligand binding
- condition_context: read-out: hOX2 Ki
experimental_endpoint: Ki (nM)
Unit nM implied. Number only.

Return reported Ki. Input compound: Cc1ccc(-n2nccn2)c(C(=O)N2C[C@H]3C[C@@H](Nc4ccc(C(F)(F)F)cn4)[C@@H]2C3)n1
132

====

- measurement_target: human orexin 1 receptor (Homo sapiens, UniProt O43613)
- protocol_notes: Human orexin 1 receptor radioligand binding
- condition_context: CHO cells stably expressing human orexin 1 receptor; competitive radioligand binding, apparent Ki; read-out: hOX1 Ki
pKi: −log10 of the molar value.
experimental_endpoint: pKi

For orientation, consider the following solved cases.
{"columns": ["compound", "pKi"],
 "data": [
  ["O=C(c1c(F)cccc1-c1ncccn1)N1C[C@H]2C[C@@H](Oc3ccc(Br)cn3)[C@@H]1C2", 7.96],
  ["O=C(c1cccc2cc[nH]c12)N1C[C@H]2C[C@@H](Oc3ccc(C(F)(F)F)cn3)[C@@H]1C2", 6.76],
  ["O=C(c1ccccc1-n1nccn1)N1CC2CC(Oc3cnc(C(F)(F)F)cn3)C1C2 (racemic)", 6.92]
]}

[1] Cc1cccc(C(=O)N2C[C@H]3C[C@@H](Oc4ccc(C(F)(F)F)cn4)[C@@H]2C3)c1-c1ncco1
[2] COc1cccc(-c2ncccn2)c1C(=O)N1C[C@H]2C[C@@H](Oc3ccc(C(F)(F)F)cn3)[C@@H]1C2
[3] O=C(c1ncccc1-n1nccn1)N1C[C@H]2C[C@@H](Oc3ccc(C(F)(F)F)cn3)[C@@H]1C2
[4] Cc1ccc(-n2nccn2)c(C(=O)N2CC3CC(Oc4cnc(C(F)(F)F)cn4)C2C3)n1 (racemic)
Arrange these 4 compounds in increasing order of pKi. In your reply, arrange the labels in the requested order.
4, 3, 2, 1

[P] CCOc1ccc(C)nc1C(=O)N1C[C@H]2C[C@@H](Oc3ccc(C(F)(F)F)cn3)[C@@H]1C2
[Q] CCOc1ccc2cccnc2c1C(=O)N1CC2CC(Oc3ccc(C(F)(F)F)cn3)C1C2 (racemic)
Pick one: P or Q . Which one has the lower reported pKi? Mark your selection by writing its label.
P

[P] O=C(c1cc(F)ccc1-c1ncccn1)N1C[C@H]2C[C@@H](Nc3ccc(C(F)(F)F)cn3)[C@@H]1C2
[Q] Cc1ccc(-n2nccn2)c(C(=O)N2C[C@H]3C[C@@H](Oc4ccc(Br)cn4)[C@@H]2C3)n1
Pick one: P or Q . Which one has the lower reported pKi? Mark your selection by writing its label.
Q
(Q: 8.05, P: 8.70)
